Tested on: 769-P
ASSAY_METHOD_TEXT: GI50 of drug in presence of dasatinib; higher = less potent
MEASUREMENT_CONDITIONS: treatment: drug + dasatinib (fixed dose, not stated); 5 days
For each record, write down the corresponding GI50 of drug.

Q: Give the measured GI50 of drug of COc1cc2c(Nc3ccc(NC(=O)c4ccccc4)cc3)ncnc2cc1OCCCN1CCOCC1 + Cc1nc(Nc2ncc(C(=O)Nc3c(C)cccc3Cl)s2)cc(N2CCN(CCO)CC2)n1 [dasatinib] .
Result: 2910 nM

Q: Give the measured GI50 of drug of COC(=O)Nc1ccc(-c2nc(N3CCOCC3)c3cnn(C4CCN(C(=O)OC)CC4)c3n2)cc1 [WYE-354] + Cc1nc(Nc2ncc(C(=O)Nc3c(C)cccc3Cl)s2)cc(N2CCN(CCO)CC2)n1 [dasatinib] .
Result: 457 nM

Q: Give the measured GI50 of drug of Cn1cc(C2=C(c3cn(C4CCN(Cc5ccccn5)CC4)c4ccccc34)C(=O)NC2=O)c2ccccc21 + Cc1nc(Nc2ncc(C(=O)Nc3c(C)cccc3Cl)s2)cc(N2CCN(CCO)CC2)n1 [dasatinib] .
Result: > 10000 nM

Q: Give the measured GI50 of drug of Oc1cc(O)cc(/C=C/c2ccc(O)c(O)c2)c1 [Piceatannol] + Cc1nc(Nc2ncc(C(=O)Nc3c(C)cccc3Cl)s2)cc(N2CCN(CCO)CC2)n1 [dasatinib] .
Result: 9790 nM

Q: Give the measured GI50 of drug of Nc1nccc(Oc2ccc(NC(=O)c3c[nH]cc(-c4ccc(F)cc4)c3=O)cc2F)c1Cl + Cc1nc(Nc2ncc(C(=O)Nc3c(C)cccc3Cl)s2)cc(N2CCN(CCO)CC2)n1 [dasatinib] .
Result: 5580 nM

Q: Give the measured GI50 of drug of COc1ccc(COc2cc3oc(=O)c4cc(C(C)O)ccc4c3cc2OC)cc1 (centres undefined) [Palomid 529] + Cc1nc(Nc2ncc(C(=O)Nc3c(C)cccc3Cl)s2)cc(N2CCN(CCO)CC2)n1 [dasatinib] .
Result: 6220 nM

Q: Give the measured GI50 of drug of CNC(=O)CN1CCC(Oc2cc3c(Nc4cccc(Cl)c4F)ncnc3cc2OC)CC1 [AZD8931] + Cc1nc(Nc2ncc(C(=O)Nc3c(C)cccc3Cl)s2)cc(N2CCN(CCO)CC2)n1 [dasatinib] .
Result: 135 nM

Q: Give the measured GI50 of drug of Cc1nc(Nc2ncc(C(=O)Nc3c(C)cccc3Cl)s2)cc(N2CCN(CCO)CC2)n1 + Cc1nc(Nc2ncc(C(=O)Nc3c(C)cccc3Cl)s2)cc(N2CCN(CCO)CC2)n1 [dasatinib] .
Result: 38.2 nM

Q: Give the measured GI50 of drug of Nc1cc(C(F)(F)F)c(-c2cc(N3CCOCC3)nc(N3CCOCC3)n2)cn1 [BKM120 (NVP-BKM120)] + Cc1nc(Nc2ncc(C(=O)Nc3c(C)cccc3Cl)s2)cc(N2CCN(CCO)CC2)n1 [dasatinib] .
Result: 478 nM

Value source: the supplement of paper PMC8149375
